Target: Corticotropin-releasing factor receptor 2/Corticotropin-releasing factor-binding protein (Homo sapiens, UniProt P24387+Q13324)
Sequence (Q13324 whole entry): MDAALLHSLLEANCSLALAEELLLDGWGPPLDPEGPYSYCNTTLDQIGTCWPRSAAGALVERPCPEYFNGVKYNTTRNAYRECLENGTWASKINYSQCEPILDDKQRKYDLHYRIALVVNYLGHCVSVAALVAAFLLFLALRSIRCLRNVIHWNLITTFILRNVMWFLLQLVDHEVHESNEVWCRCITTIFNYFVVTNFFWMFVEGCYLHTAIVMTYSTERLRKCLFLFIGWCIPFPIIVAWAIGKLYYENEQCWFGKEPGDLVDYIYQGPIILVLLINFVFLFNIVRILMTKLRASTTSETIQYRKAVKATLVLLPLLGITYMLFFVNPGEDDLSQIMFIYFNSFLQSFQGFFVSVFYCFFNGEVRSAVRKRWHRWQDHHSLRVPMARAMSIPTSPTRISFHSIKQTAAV
Sequence (P24387 whole entry): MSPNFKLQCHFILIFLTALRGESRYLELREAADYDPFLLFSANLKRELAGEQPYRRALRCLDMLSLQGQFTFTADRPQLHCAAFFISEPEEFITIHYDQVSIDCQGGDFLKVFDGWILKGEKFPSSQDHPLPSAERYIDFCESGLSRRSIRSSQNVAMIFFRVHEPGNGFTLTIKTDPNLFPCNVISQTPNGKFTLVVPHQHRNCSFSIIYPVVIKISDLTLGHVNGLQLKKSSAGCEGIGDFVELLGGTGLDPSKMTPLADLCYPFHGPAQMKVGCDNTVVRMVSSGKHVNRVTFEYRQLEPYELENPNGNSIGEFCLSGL
Assay: activators of CRF receptor 2 with binding protein – uHTS hits, confirmation (AID 602473)
Format: functional
Settings: read-out: EC50_Mean
Activity calls are given as the source filed them.
Bench note: report the call from T (active), F (inactive)

Q. Answer briefly: the call reported for Cc1ccc(CCNC(=O)C2CCCN(S(=O)(=O)N3CC(C)CC(C)C3)C2)cc1 (stereo not given) in this assay.
A. F

Q. # fetch the recorded call for `CCN(C(=O)CN1C(=O)COc2ccc(S(=O)(=O)N3CCCCCC3)cc21)c1cccc(C)c1` here
A. T

Q. Can you look up the reported call for `COc1ccc(C)cc1S(=O)(=O)N1CCN(S(=O)(=O)c2cc(C)ccc2OC)CC1` for me?
A. F

Q. For `CC(=O)Nc1ccc(S(=O)(=O)N2CCN(c3nnnn3-c3ccccc3)CC2)cc1` , which call appears in the assay record?
A. F

Q. Hello, I am checking results. What call was entered for `C/C(=C\C=C(C#N)C#N)c1cc(C#N)c(N)o1` ?
A. T

* * *

# AC50 measurements, system: Cytochrome P450 3A4 (Homo sapiens, UniProt P08684)
# Sequence (P08684 whole entry): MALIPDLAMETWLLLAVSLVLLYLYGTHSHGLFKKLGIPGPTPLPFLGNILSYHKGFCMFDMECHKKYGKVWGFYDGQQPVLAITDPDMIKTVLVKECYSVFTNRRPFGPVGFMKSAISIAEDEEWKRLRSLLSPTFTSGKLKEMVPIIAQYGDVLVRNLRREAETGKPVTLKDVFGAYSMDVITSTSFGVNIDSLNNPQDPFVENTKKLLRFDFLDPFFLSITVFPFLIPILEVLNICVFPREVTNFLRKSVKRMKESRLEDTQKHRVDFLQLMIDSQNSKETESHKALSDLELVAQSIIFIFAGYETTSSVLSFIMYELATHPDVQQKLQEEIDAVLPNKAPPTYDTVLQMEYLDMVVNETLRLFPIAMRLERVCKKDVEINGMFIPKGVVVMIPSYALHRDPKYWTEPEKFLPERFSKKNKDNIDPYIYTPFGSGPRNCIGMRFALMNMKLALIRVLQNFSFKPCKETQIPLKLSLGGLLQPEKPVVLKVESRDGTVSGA

Q. For Cytochrome P450 3A4 (Homo sapiens, UniProt P08684), provide AC50 of `O=C(CC1CCCCC1)N1CCC(c2nc(-c3ccc(S(=O)(=O)N4CCCC4)cc3)no2)CC1` please.
A. 14.1 µM (inconclusive)

Q. Quick check: AC50 on Cytochrome P450 3A4 (Homo sapiens, UniProt P08684), item `Cn1cc(/C=N/n2cnc3scc(-c4ccccc4)c3c2=O)c2ccccc21` ?
A. 3.98 µM (inconclusive)

Q. Request body: readout AC50, system Cytochrome P450 3A4 (Homo sapiens, UniProt P08684), query `[Cl-].[Li+]` . Return the value.
A. 31.6 µM (inconclusive)

Q. Requested read-out AC50, target or system Cytochrome P450 3A4 (Homo sapiens, UniProt P08684), entry `COc1cccc(Nc2ncc3nc(CCc4ccccc4)c(=O)n(C4CC4)c3n2)c1`
A. 10 µM (inconclusive)

Q. Find AC50 (Cytochrome P450 3A4 (Homo sapiens, UniProt P08684)) for the entry CCOC(=O)NCN1C(=O)C2C3C=CC(C3)C2C1=O (configuration not stated)
A. 6.31 µM (inconclusive)

Q. Param readout= AC50; system= Cytochrome P450 3A4 (Homo sapiens, UniProt P08684); entry= `CC(C)(C)N(NC(=O)c1ccccc1)C(=O)c1cccc(C(=O)N(NC(=O)c2ccccc2)C(C)(C)C)c1` ; returns value.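 Further: CYP3A4 tested as one member of a cytochrome P450 panel screen.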
A. 3.98 µM (inconclusive)

Q. Give AC50 (Cytochrome P450 3A4 (Homo sapiens, UniProt P08684)) of the following compound: `Cc1ccc(-c2nc3ccccc3s2)cc1NC(=S)NC(=O)c1ccccc1`
A. 14.1 µM (inconclusive)

Q. Record lookup: for Cytochrome P450 3A4 (Homo sapiens, UniProt P08684), what AC50 belongs to `O=C(c1csnn1)N1CCC2(CC1)CN(c1cccc(-c3ccccc3)c1)C2` ?
A. 39.8 µM (inconclusive)

Q. Can you look up AC50 on Cytochrome P450 3A4 (Homo sapiens, UniProt P08684) for `CC(=O)N(/N=C1\Sc2ccccc2C1=O)c1ccccc1C` ?
A. 31.6 µM (inconclusive)

Q. Lab note: need AC50 with Cytochrome P450 3A4 (Homo sapiens, UniProt P08684) for entry `Cn1cccc1C(=O)N1CCC[C@@]2(CCN(C(=O)Nc3cccc(C#N)c3)C2)C1` , please look it up.
A. 25.1 µM (inconclusive)

Q. // fetch Cytochrome P450 3A4 (Homo sapiens, UniProt P08684) AC50 for `CC(C)NC(=O)N1CCCC2(CCN(C(=O)c3cccc(F)c3)CC2)C1`
A. 25.1 µM (inconclusive)

Q. Under Cytochrome P450 3A4 (Homo sapiens, UniProt P08684): AC50 value of `O=[N+]([O-])c1ccc2c(c1NC1CCCCC1)=NC1(CCCCC1)[N+]=2[O-]` ?
A. 3.16 µM (inconclusive)

Just for reference, ChEMBL document CHEMBL1201862 is where these values come from.
